Readings of z-score for the listed compounds
STUDY_SYSTEM: NADPH oxidase 2 (Homo sapiens) (UniProt P04839)
Sequence (P04839 whole entry, looked up): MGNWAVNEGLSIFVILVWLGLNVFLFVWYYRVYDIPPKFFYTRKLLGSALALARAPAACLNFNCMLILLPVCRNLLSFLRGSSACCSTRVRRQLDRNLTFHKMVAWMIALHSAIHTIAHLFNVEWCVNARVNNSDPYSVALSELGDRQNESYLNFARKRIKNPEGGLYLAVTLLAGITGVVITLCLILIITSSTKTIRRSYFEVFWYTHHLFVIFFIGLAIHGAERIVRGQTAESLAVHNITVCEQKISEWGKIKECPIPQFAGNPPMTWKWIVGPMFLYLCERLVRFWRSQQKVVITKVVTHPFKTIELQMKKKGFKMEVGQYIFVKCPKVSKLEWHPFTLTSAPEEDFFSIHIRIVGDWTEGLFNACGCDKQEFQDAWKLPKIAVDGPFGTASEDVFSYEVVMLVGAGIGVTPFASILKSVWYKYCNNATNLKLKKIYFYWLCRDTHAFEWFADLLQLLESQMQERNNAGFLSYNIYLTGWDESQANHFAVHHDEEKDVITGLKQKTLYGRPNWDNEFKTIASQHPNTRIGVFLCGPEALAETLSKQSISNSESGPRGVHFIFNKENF
ASSAY_REMARKS: compounds shifting NOX2 Amplex Red fluorescence – cell-based, HEK293-NOX2, PMA-stimulated, NOX inhibitor project, primary screen (AID 1159); note: test concentration not given here
RUN_CONDITIONS: 45 min, higher = more signal, called active from +8 up or from −8 down
Provide a numeric answer; units are not to be included.

Known results for compounds:
Just so you know, measured z-score for `CC(C)CNC(=O)[C@@]1(C)c2ccccc2C(=O)N(C(C)C)[C@H]1c1ccc(CO)cc1` came out at -0.93

Measured z-score of `C#C[C@H](O[Si](C#CCCCCCC)(C(C)C)C(C)C)c1ccccc1` : -1.09

// z-score lookup, compound = `CC(C)NC(=O)[C@@]1(c2ccc([N+](=O)[O-])cc2)CC(=O)N(C(C)C)[C@@H]1c1ccc(CO)cc1` , result: -0.379

Note to self: z-score recorded for `O=S(=O)(NCCCO)c1ccc(Br)cc1` was -1.2

More entries:
Reported z-score ( `C=CCN1C(=O)[C@]2(Cc3ccccc31)N=C(c1ccc(OCCCO)cc1)O[C@@H]2c1ccccc1` ) = -1.42

In plain terms, CCCCN1CC=CC23O[C@@H]4C=CCCOC(=O)C4[C@H]2C(=O)N(CCCO)[C@@H]3C1=O (some centres undefined) has a documented z-score of -0.168

Field z-score (entry [N-]=[N+]=NCc1ccccc1C[C@]1(C(=O)NCC(O)CO)COC(c2ccc(OCCCO)cc2)=N1 (some centres undefined) ) reads -2.99

// z-score lookup, compound = `Cc1ccc(N2C(=O)c3ccccc3[C@@H](C(=O)NC(C)C)[C@@H]2c2ccc(CO)cc2)nc1` , result: 0.0802

For reference, reported z-score for O=C1C2C=CC(C(O)C3CC=CCC3)N(n3cnnc3)C2C(=O)N1Cc1ccccc1 (centres undefined) stands at -0.621

###

STUDY_SYSTEM: Dickkopf-related protein 1 (Homo sapiens) (UniProt O94907)
Sequence (O94907 whole entry, looked up): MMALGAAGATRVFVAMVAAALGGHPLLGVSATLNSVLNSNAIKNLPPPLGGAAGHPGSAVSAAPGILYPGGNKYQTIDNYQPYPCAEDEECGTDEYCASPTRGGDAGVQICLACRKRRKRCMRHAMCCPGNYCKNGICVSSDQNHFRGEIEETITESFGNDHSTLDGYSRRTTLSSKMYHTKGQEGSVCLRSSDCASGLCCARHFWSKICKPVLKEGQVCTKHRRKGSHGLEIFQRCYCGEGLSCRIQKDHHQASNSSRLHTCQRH
ASSAY_REMARKS: small molecules binding DKK1 protein – biochemical, small-molecule microarray, 635 nm fluorescence scan, primary screen (AID 1106);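 note: score merges emission near 667 nm with signal to noise over three replicate slides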
RUN_CONDITIONS: higher = more signal
ENDPOINT: composite z-score

Worked cases, answers included:
// composite z-score lookup, molecule = `CC(=O)NCCCC[C@@H]1NC(=O)[C@@H]2C[C@H](C(=O)NCc3ccc(F)cc3)[C@H](c3ccc(O)cc3)N2C1=O` , result: 0.592

According to the records, this molecule `O=[N+]([O-])c1ccc(C[n+]2ccc(CCCO)cc2)o1` displays composite z-score of 1.08

Per the records, this molecule ( COc1cc2c(cc1O)C(c1ccc(CN3CCCC3)cc1)N(Cc1sc3ccccc3c1Cl)CC2 (centres undefined) ) has composite z-score equal to 1.12

Now for another entry.
Field composite z-score (entry `CCCC[C@H]1C[C@@H]1[C@@H]1N(P(=O)(c2ccccc2)c2ccccc2)[C@](CO)(c2ccccc2)CC12CC2` ) reads -1.47

###

STUDY_SYSTEM: Pro-neuregulin-1, membrane-bound isoform (Homo sapiens)
ASSAY_REMARKS: small molecules binding neuregulin-1 protein – biochemical, small-molecule microarray, fluorescence 635/667, psychiatric disease protein project, primary screen (AID 1075);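 note: score combines 667 nm spot fluorescence with signal to noise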
RUN_CONDITIONS: NRG1 binding, 635 nm fluorescence, higher = more signal
The following compounds are shown together with reported composite z-score values.
API doc: respond with a numeric literal and nothing else, no unit.

Summary line: `CN(C)CCCC[C@@H]1NC(=O)[C@@H]2C[C@H](C(=O)NCCCCCN)[C@H](c3ccc(O)cc3)N2C1=O` , Pro-neuregulin-1, membrane-bound isoform (Homo sapiens), reported composite z-score = 2.23

Next:
Item: `CC(C)(C)OC(=O)CC[C@@]1(C(N)=O)N=C(c2ccc(OCCCO)cc2)O[C@@H]1c1ccccc1N=[N+]=[N-]` | System: Pro-neuregulin-1, membrane-bound isoform (Homo sapiens) | composite z-score: 0.798

Simply: `CO[C@H]1O[C@H](CO)[C@@H](OC(=O)Nc2cccc(F)c2)[C@H](OC(=O)Nc2ccccc2-c2ccccc2)[C@@H]1OC(=O)Nc1ccccc1-c1ccccc1` , Pro-neuregulin-1, membrane-bound isoform (Homo sapiens), composite z-score = 1.75

###

Test system: Neuregulin-1 EGF-like domain
ASSAY_REMARKS: small molecules binding NRG1 EGF domain – biochemical, small-molecule microarray, 635 nm fluorescence, primary screen (AID 1081);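 note: binding of the protein to compounds printed on small-molecule microarray slides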
RUN_CONDITIONS: higher = more signal
Below, each entry is listed with its recorded composite z-score.
Please respond with just the number, no unit label.

Examples with their reported composite z-score follow.
Just so you know, measured composite z-score for O=C1OCC=C[C@H]2OC34C=CCN(CCN5CCOCC5)C(=O)[C@H]3N(CCCCCCO)C(=O)[C@@H]4[C@@H]12 (stereo partly drawn) came out at 1.27

// field: composite z-score; key: O=C1OCC=C[C@H]2OC34C=CCN(c5ccc6ccccc6c5)C(=O)[C@H]3N(CCO)C(=O)[C@@H]4[C@@H]12 (stereo partly drawn) ; value = 1.39

Value of composite z-score reported for the compound `COc1c(C)cc(-c2cc3c(c(-c4ccccc4)n2)[Si](C(C)C)(C(C)C)O[C@H]3c2ccccc2)cc1C` is -0.438

More entries:
get_value(item= `[N-]=[N+]=NCc1ccccc1C[C@]1(C(N)=O)N=C(c2ccc(OCCCO)cc2)O[C@H]1c1ccccc1N=[N+]=[N-]` , readout=composite z-score) returns 1.12

The value of composite z-score measured for the compound O=C1OCCC/C=C\[C@H]2OC34C=CCN(Cn5nnc6ccccc65)C(=O)[C@H]3N(CCCO)C(=O)[C@@H]4C12 (stereo partly drawn) turned out to be 1.13

###

Tested on: Fibrinogen (Alexa647-labelled)
ASSAY_REMARKS: Alexa647-fibrinogen binding to printed small molecules – biochemical, small-molecule microarray, 635/667 nm fluorescence, artefact control for SMM control-protein annotation, profiling panel (AID 1131);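 note: z-score merges 667 nm fluorescence with per-spot signal-to-noise over triplicate slides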
RUN_CONDITIONS: fibrinogen-A647 binding fluorescence, higher = more signal
Known composite z-score of a selection of molecules

Some molecules with recorded composite z-score:
Given item `CCCC[C@@H]1C[C@H]1[C@@H](NC(=O)c1ccccc1)c1ccccc1` , the value recorded as its composite z-score is 0.244

Reported composite z-score ( CCOC(=O)N1C(c2ccc(OCCCO)cc2)=NC(C(=O)OC)N1C(=O)OCC (stereo not drawn) ) = 0.864

Further cases:
What the record says about `C=CC[C@@]1(C(N)=O)N=C(c2ccc(OCCCO)cc2)O[C@@H]1c1ccccc1N=[N+]=[N-]` : composite z-score is 0.183

Note to self: composite z-score recorded for `CC(=O)NCCCC[C@@H]1NC(=O)[C@@H]2C[C@H](C(=O)NCc3ccc(F)cc3)[C@H](c3ccc(O)cc3)N2C1=O` was 0.754

Notebook: `NC(=O)NCC#Cc1ccc2c(c1)[C@]1(C(=O)N2)[C@H](C(=O)NC[C@H](O)c2ccccc2)[C@H]2C(=O)O[C@H](c3ccccc3)[C@H](c3ccccc3)N2[C@@H]1c1ccccc1OCCO` , composite z-score read as 0.946

molecule `CN(C)CCCC[C@@H]1NC(=O)[C@@H]2C[C@H](C(=O)NCc3ccc(F)cc3)[C@H](c3cccc(OCCO)c3)N2C1=O` , composite z-score observed: 0.909

###

STUDY_SYSTEM: Carbonic anhydrase 2 (Homo sapiens) (UniProt P00918)
ASSAY_REMARKS: compounds binding carbonic anhydrase 2 – biochemical, small-molecule microarray, Alexa647-labelled CAII, profiling panel (AID 1122)
RUN_CONDITIONS: CAII-A647 binding fluorescence, higher = more signal
Lab note: anything with composite z-score at or over 0.7 counts as YES; the rest go in NO.

Consider the following illustrative entries.
Q: Quick check, composite z-score >= 0.7? CC(C)(C)OC(=O)CC[C@]1(C(=O)NCC(O)CO)N=C(c2ccc(OCCCO)cc2)O[C@H]1c1ccccc1CN=[N+]=[N-] (some centres not stated)
Ans: YES

Q: Is reported composite z-score greater than or equal to 0.7 here: CC(C)OC(=O)C1=CCC(c2cccc(Cl)c2)O1 (configuration not stated)
Ans: YES

Q: Could you please find out whether `COCCOC(=O)N1C(=O)[C@@]2(c3cc(C#Cc4ccc(OC)cc4)ccc31)[C@H](C(N)=O)[C@H]1C(=O)O[C@H](c3ccccc3)[C@H](c3ccccc3)N1[C@@H]2c1ccc(O)cc1` has composite z-score that meets 0.7 or exceeds it?
Ans: NO

Q: Determine whether measured composite z-score meets or exceeds 0.7 for C=CCC(OC(C)=O)[C@@H]1[C@@H](N(Cc2ccc(-c3cccc(C(F)(F)F)c3)o2)C(=O)c2ccc(C)cc2)c2cc(OCCCO)ccc2N1C(=O)c1ccc2ccccc2n1 (some centres not stated)
Ans: NO

Q: # check: composite z-score of CN1C(=O)C2C=CC(C(O)C=Cc3ccc([N+](=O)[O-])cc3)N(N3CCCCC3)C2C1=O (configuration not stated) is greater than or equal to 0.7
Ans: YES

Q: Assess whether reported composite z-score for `CC(C)NC(=O)[C@@H]1c2ccccc2C(=O)N(C2CCCCC2)[C@H]1c1ccc(CO)cc1` sits at 0.7 or higher.
Ans: NO

Continue with the next compound.
Q: Item C=C(C)[C@@H]1CC=C(C(O)C2C=CC3C(=O)N(Cc4ccccc4)C(=O)C3N2n2cnnc2)CC1 (some centres not stated) with composite z-score of 0.7 or above?
Ans: YES
